# Test system: SF-268
# experimentalProtocol: NCI tumour cell line growth inhibition, 48 h
Calls of active or inactive are those of the source. No stated cut-off is given here; in the data, active = GI50 up to about 1.1 µM and inactive = higher. Where a SMILES comes first, the peptide text is derived from it. [ ]: non-standard residue; d: D form. The star is where a group is joined. Chg = N[CH](C(=O)O)C1CCCCC1; Cbz = O=C(OCc1ccccc1)*; OBn = c1ccc(CO*)cc1
Entry note: the call must match one of yes (1) = active, no (0) = inactive

[ask] Which outcome was entered for the molecule O=c1[nH]c(=S)[nH]n1C(=S)n1[nH]c(=S)[nH]c1=O in this test?
[reply] no (0)

[ask] Which outcome was entered for the molecule CC1=C2C(=CC(C)(CO)C2O)C(=O)C(C)(O)C12CC2 (stereo not drawn) in this test?
[reply] yes (1)

[ask] Which outcome was entered for the molecule O=C1CC(Sc2nc3ccc(I)cc3c(=O)n2Cc2ccccc2)C(=O)NN1 (stereo not drawn) in this test?
[reply] no (0)

[ask] Which outcome was entered for the molecule COc1cc(C)cc(C(=O)OCc2ccccc2)c1C1=C(Cl)C(=O)C(Cl)=CC1=O in this test?
[reply] no (0)

[ask] Which outcome was entered for the molecule COc1ccc2c(c1)CCCN1CCc3ccccc3C21 (stereo not drawn) in this test?
[reply] no (0)

[ask] Which outcome was entered for the molecule COC(=O)C(NC(=O)C(CC(=O)OCc1ccccc1)NC(=O)OCc1ccccc1)C1CCCCC1 (stereo not drawn) (Cbz-Asp(OBn)-[Chg]-OMe; configuration not given here) in this test?
[reply] no (0)

[ask] Which outcome was entered for the molecule C=C1C[C@H](O)[C@H]2C(C[Se]c3ccccc3)C(=O)O[C@@H]2[C@H]2[C@H](C)C(O)C[C@@H]12 (stereo partly drawn) in this test?
[reply] no (0)

[ask] Which outcome was entered for the molecule CCn1c(CCl)nc2c1C(=O)c1ccccc1C2=O in this test?
[reply] no (0)

[ask] Which outcome was entered for the molecule CC1CC(C)(O)CC(C(O)CC2CC(=O)NC(=O)C2)C1=O (stereo not drawn) [RESACTIN A] in this test?
[reply] yes (1)

[ask] Which outcome was entered for the molecule CCOC(=O)/C=C/c1nc(C#N)c(N)o1 in this test?
[reply] no (0)

[ask] Which outcome was entered for the molecule O=C(NN=C1CCN(Cc2ccccc2)CC1)C(O)(c1ccccc1)c1ccccc1 in this test?
[reply] no (0)

[ask] Which outcome was entered for the molecule OCC(O)C(OC1OC(CO)C(O)C(O)C1O)c1nn(-c2ccc(Cl)cc2)c2nc3cc(Cl)ccc3nc12 (stereo not drawn) in this test?
[reply] no (0)

[ask] Which outcome was entered for the molecule CCCNC(=O)C1C(=O)C(=O)N(CCC)C1=O (stereo not drawn) in this test?
[reply] no (0)

[ask] Which outcome was entered for the molecule CC(=O)OC(C)(C)/C=C/C(=O)[C@](C)(O)[C@H]1[C@H](O)C[C@@]2(C)[C@@H]3CC=C4[C@@H](C=C(O)C(=O)C4(C)C)[C@]3(C)C(=O)C[C@]12C [CUCURBITACIN E] in this test?
[reply] yes (1)

[ask] Which outcome was entered for the molecule CN1/C(=C\N=O)C(C)(C)N(O)C1(C)C in this test?
[reply] no (0)

[ask] Which outcome was entered for the molecule CC(=O)OC12CC[N+]3(C)CCCCC3C1=Nc1ccccc12 (stereo not drawn) in this test?
[reply] no (0)

[ask] Which outcome was entered for the molecule C[C@@H]1C2=CC[C@@]3(C)C(CCC3[C@H](C)[C@H]3C[C@@]4(C)O[C@@](c5cccnc5)(O3)OC4(C)C)[C@@H]2C2OC2[C@@]12CCC(=O)O2 (stereo partly drawn) in this test?
[reply] no (0)

[ask] Which outcome was entered for the molecule CCOC(=O)C1=NNC(C(=O)c2ccccc2)C1c1ccccc1 (stereo not drawn) in this test?
[reply] no (0)

[ask] Which outcome was entered for the molecule COCC(C)(C)/N=C/N1Cc2cc3ccccc3nc2C1 in this test?
[reply] no (0)

[ask] Which outcome was entered for the molecule Cn1c(=O)c2c(ncn2Cc2ccc(O)c([N+](=O)[O-])c2)n(C)c1=O in this test?
[reply] no (0)

[ask] Which outcome was entered for the molecule COc1ccc2[nH]c3c(C)c4cc[n+](COC(=O)c5ccccc5)cc4c(C)c3c2c1 in this test?
[reply] yes (1)

[ask] Which outcome was entered for the molecule COc1cc([C@@H]2c3cc4c(cc3[C@@H](NCc3cccc(C#N)c3)C3COC(=O)[C@@H]32)OCO4)cc(OC)c1O (stereo partly drawn) in this test?
[reply] no (0)

[ask] Which outcome was entered for the molecule C[C@@H]1C[C@H](O)[C@]2(O)O[C@@H]3C[C@@]4(C=O)[C@@H](CC[C@@H]5[C@@H]4CC[C@]4(C)[C@@H](C6=CC(=O)OC6)CC[C@]54O)C[C@H]3O[C@@H]2O1 [CALOTROPIN] in this test?
[reply] yes (1)

[ask] Which outcome was entered for the molecule CC(C)(O)[C@H](CCO)O[Si](c1ccccc1)(c1ccccc1)C(C)(C)C in this test?
[reply] no (0)

[ask] Which outcome was entered for the molecule CCOC(=O)c1cc2c3ccn(Cc4ccccc4)c3c3c(C)noc3c2[nH]1 in this test?
[reply] no (0)

[ask] Which outcome was entered for the molecule O=C1OC[C@@H]2Cc3c([nH]c4ccccc34)[C@@H](c3cc(O)c(O)c(O)c3)N12 in this test?
[reply] no (0)

[ask] Which outcome was entered for the molecule COc1cc(/C=C(\C#N)c2nc3ccccc3o2)ccc1O in this test?
[reply] no (0)

[ask] Which outcome was entered for the molecule Cc1nc2c(s/c(=N\N)n2-c2ccccc2)c(=O)[nH]1 in this test?
[reply] no (0)

[ask] Which outcome was entered for the molecule COc1cc(/C=C(\C)c2ccc3c(c2)OCO3)cc(OC)c1OC in this test?
[reply] no (0)

[ask] Which outcome was entered for the molecule O=C1Cc2ccccc2N1/N=C\c1ccc([N+](=O)[O-])cc1 in this test?
[reply] no (0)

[ask] Which outcome was entered for the molecule CCOc1cc2c(=O)oc3c(OC)ccc4ccc(c1OC)c2c43 in this test?
[reply] no (0)

[ask] Which outcome was entered for the molecule O=C(Cc1ccccc1)NS(=O)(=O)c1ccccc1 in this test?
[reply] no (0)

[ask] Which outcome was entered for the molecule CCC1(O)C(=O)OCc2c1cc1n(c2=O)Cc2cc3ccc(CO)cc3nc2-1 (stereo not drawn) in this test?
[reply] yes (1)

[ask] Which outcome was entered for the molecule CC1(C)Cc2c(oc3ncnc(N)c23)CS1 in this test?
[reply] no (0)

[ask] Which outcome was entered for the molecule CN(/N=C/c1ccccc1C(=O)O)C1=NCCCCN1 in this test?
[reply] no (0)

[ask] Which outcome was entered for the molecule CC1=C(NC(=O)C(=O)NNC(=O)c2ccncc2)C(=O)c2ccccc2C1=O in this test?
[reply] no (0)

[ask] Which outcome was entered for the molecule CC(=O)C1C(=O)C(=O)N(c2ccc([N+](=O)[O-])cc2)C1=O (stereo not drawn) in this test?
[reply] no (0)

[ask] Which outcome was entered for the molecule CC(C)/C(Cl)=N\OC(=O)Nc1cccc(Cl)c1 in this test?
[reply] no (0)

---

Provide the recorded GI50 for the entries that follow.
# Test system: DMS-273
# experimentalProtocol: NCI tumour cell line growth inhibition, 48 h
Activity calls are given as the source filed them. Cut-off read from the data, not from the text of the source: active = GI50 up to about 1.1 µM and inactive = higher.

GET /value?item= CC1(C(=O)Nc2ccc3ccccc3c2)CC2(C)CC(C)(C1)C(O)NC2=O (stereo not given) &field=GI50 returns > 100 µM (inactive)

GET /value?item= Nc1ccc(Nc2nc(F)nc(-c3c4ccccc4c4n3CCS4)n2)cc1 &field=GI50 returns 10.4 µM (inactive)

GET /value?item= CC1=C2C=CC(=O)C[C@@]2(C)CCC1 &field=GI50 returns > 100 µM (inactive)

GET /value?item= Oc1nnc2c(-c3ccccc3)n[nH]c2n1 &field=GI50 returns > 100 µM (inactive)

GET /value?item= C=C(CN(C)C)C(=O)c1ccccc1OC &field=GI50 returns 17.2 µM (inactive)

GET /value?item= CCCN1CN(C(C(=O)N[C@@H]2C(=O)N3C(C(=O)O)=C(C)CSC23)c2ccccc2)CSC1=S (stereo not given in full) &field=GI50 returns > 100 µM (inactive)

GET /value?item= O=C(O)COc1ccc(C(=O)/C(SS/C(C(=O)c2ccc(OCC(=O)O)c(Cl)c2Cl)=C2\C=C(c3ccccc3Cl)SS2)=C2/C=C(c3ccccc3Cl)SS2)c(Cl)c1Cl &field=GI50 returns 25.6 µM (inactive)

GET /value?item= Nc1nc(N)c2ncn(CC(CO)CC(c3ccccc3)P(=O)(O)O)c2n1 (stereo not given) &field=GI50 returns > 100 µM (inactive)

GET /value?item= Cc1c(C(=O)/C=C/c2ccc3c(c2)OCO3)[n+]([O-])c2ccccc2[n+]1[O-] &field=GI50 returns 22.6 µM (inactive)

GET /value?item= NC(=O)c1cn(Cc2ccccc2)c(=O)n1Cc1ccccc1 &field=GI50 returns > 100 µM (inactive)
